# Tested system: PSMA (Homo sapiens)
# Construct: endogenous in cells; host or cells: LNCaP cells
# Experiment description: Determination of PSMA affinity (IC50), competition with ([125I]I-BA)KuE on LNCaP cells
# Type: binding
# Particulars: IC50, natGa-natF-L, ([125I]I-BA)KuE 0.2 nM, 1 h, 4° C., mean ± SD
# Experimental: After removal of the culture medium, the cells were treated once with 500 μL of HBSS (Hank's balanced salt solution, Biochrom, Berlin, Germany, with addition of 1% bovine serum albumin (BSA)) and left 15 min on ice for equilibration in 200 μL HBSS (1% BSA). […] Quantification of bound and free radioligand was accomplished in a γ-counter.
pIC50 overview
Kindly note that pIC50 refers to -log10 of the concentration in mol/L and answer with the value alone.

Sample answers from the record:
- Compound: "CC(C)(C)[Si](F)(c1ccc(C(=O)NC[C@@H](C(=O)N[C@H](CCCCNC(=O)CCCCCCC(=O)NCCCC[C@H](NC(=O)N[C@@H](CCC(=O)O)C(=O)O)C(=O)O)C(=O)O)n2cc(CNC(=O)CCP(=O)(O)CN3CCN(CP(=O)(O)CCC(=O)O)CCN(CP(=O)(O)CCC(=O)O)CC3)nn2)cc1)C(C)(C)C [ligand 6, PSMA-SIFA2]"
  Tested system: "PSMA (Homo sapiens)"
  Numeric result: 7.97
- Compound: "CC(C)(C)[Si](F)(c1ccc(C(=O)NC[C@@H](C(=O)N[C@H](CCCCNC(=O)CCC(=O)NCCC[C@@H](NC(=O)CC[C@H](NC(=O)N[C@@H](CCC(=O)O)C(=O)O)C(=O)O)C(=O)O)C(=O)O)n2cc(CNC(=O)CCP(=O)(O)CN3CCN(CP(=O)(O)CCC(=O)O)CCN(CP(=O)(O)CCC(=O)O)CC3)nn2)cc1)C(C)(C)C [ligand 9, PSMA-SIFA5]"
  Tested system: "PSMA (Homo sapiens)"
  Numeric result: 8.35

// switching to the query compound
[ask] Look up and report measured pIC50 for this entry: CC(C)(C)[Si](F)(c1ccc(C(=O)N[C@H](CNC(=O)CCC(C(=O)O)N2CCN(CC(=O)O)CCN(CC(=O)O)CCN(CC(=O)O)CC2)C(=O)N[C@H](CCCCNC(=O)CCC(=O)NCCC[C@@H](NC(=O)CC[C@H](NC(=O)N[C@@H](CCC(=O)O)C(=O)O)C(=O)O)C(=O)O)C(=O)O)cc1)C(C)(C)C (stereo partly drawn) [ligand 8, PSMA-SIFA4]
[reply] 8.42

* * *

Each entry below carries its recorded pIC50.
# Tested system: PSMA (Homo sapiens, UniProt Q04609)
# Construct: endogenous in cells; host or cells: LNCaP cells
# Sequence (Q04609 whole entry): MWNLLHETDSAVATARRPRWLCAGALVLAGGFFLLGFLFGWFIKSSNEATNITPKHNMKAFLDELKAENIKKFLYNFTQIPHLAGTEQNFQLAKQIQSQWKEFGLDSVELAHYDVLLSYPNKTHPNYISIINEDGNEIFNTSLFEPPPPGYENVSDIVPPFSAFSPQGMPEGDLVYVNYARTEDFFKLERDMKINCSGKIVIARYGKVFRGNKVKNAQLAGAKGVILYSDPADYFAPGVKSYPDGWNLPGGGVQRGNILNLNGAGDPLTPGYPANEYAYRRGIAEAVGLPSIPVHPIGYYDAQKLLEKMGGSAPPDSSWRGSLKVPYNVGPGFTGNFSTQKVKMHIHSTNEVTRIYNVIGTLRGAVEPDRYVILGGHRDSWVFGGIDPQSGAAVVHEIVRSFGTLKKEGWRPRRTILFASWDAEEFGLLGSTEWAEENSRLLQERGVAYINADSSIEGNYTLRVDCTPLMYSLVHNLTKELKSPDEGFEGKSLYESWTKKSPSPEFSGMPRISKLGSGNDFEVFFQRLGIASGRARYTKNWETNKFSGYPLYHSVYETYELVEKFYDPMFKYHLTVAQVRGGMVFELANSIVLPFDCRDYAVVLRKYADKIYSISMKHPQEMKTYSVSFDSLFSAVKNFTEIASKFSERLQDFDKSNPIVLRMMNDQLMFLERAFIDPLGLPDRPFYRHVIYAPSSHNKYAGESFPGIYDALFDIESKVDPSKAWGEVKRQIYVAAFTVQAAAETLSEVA
# Experiment description: Determination of PSMA affinity (IC50), competition with ([125I]I-BA)KuE on LNCaP cells
# Format: binding
# Particulars: IC50, natF-L (uncomplexed), ([125I]I-BA)KuE 0.2 nM, 1 h, 4° C., mean ± SD
# Procedure: After removal of the culture medium, the cells were treated once with 500 μL of HBSS (Hank's balanced salt solution, Biochrom, Berlin, Germany, with addition of 1% bovine serum albumin (BSA)) and left 15 min on ice for equilibration in 200 μL HBSS (1% BSA). […] Quantification of bound and free radioligand was accomplished in a γ-counter.
The quantity pIC50 is defined as the negative base-10 logarithm of the molar concentration.

Below, 3 compounds whose answers are already recorded.
- Compound: "CC(C)(C)[Si](F)(c1ccc(C(=O)N[C@H](CNC(=O)CCC(C(=O)O)N2CCN(CC(=O)O)CCN(CC(=O)O)CCN(CC(=O)O)CC2)C(=O)N[C@H](CCCCNC(=O)CCC(=O)NCCC[C@@H](NC(=O)CC[C@H](NC(=O)N[C@@H](CCC(=O)O)C(=O)O)C(=O)O)C(=O)O)C(=O)O)cc1)C(C)(C)C (stereo partly shown)"
  Numeric result: 8.60
- Compound: "CC(C)(C)[Si](F)(c1ccc(C(=O)NC[C@@H](C(=O)N[C@H](CCCCNC(=O)CCC(=O)NCCC[C@@H](NC(=O)CC[C@H](NC(=O)N[C@@H](CCC(=O)O)C(=O)O)C(=O)O)C(=O)O)C(=O)O)n2cc(CNC(=O)CCP(=O)(O)CN3CCN(CP(=O)(O)CCC(=O)O)CCN(CP(=O)(O)CCC(=O)O)CC3)nn2)cc1)C(C)(C)C"
  Numeric result: 8.37
- Compound: "CC(C)(C)[Si](F)(c1ccc(C(=O)NC[C@@H](NC(=O)CCC(C(=O)O)N2CCN(CC(=O)O)CCN(CC(=O)O)CCN(CC(=O)O)CC2)C(=O)N[C@H](CCCCNC(=O)CCCCCCC(=O)NCCCC[C@H](NC(=O)N[C@@H](CCC(=O)O)C(=O)O)C(=O)O)C(=O)O)cc1)C(C)(C)C (stereo partly shown)"
  Numeric result: 8.19

[ask] Given `CC(C)(C)[Si](F)(c1ccc(C(=O)NC[C@@H](C(=O)N[C@H](CCCCNC(=O)CCCCCCC(=O)NCCCC[C@H](NC(=O)N[C@@H](CCC(=O)O)C(=O)O)C(=O)O)C(=O)O)n2cc(CNC(=O)CCP(=O)(O)CN3CCN(CP(=O)(O)CCC(=O)O)CCN(CP(=O)(O)CCC(=O)O)CC3)nn2)cc1)C(C)(C)C` , respond with its pIC50.
[reply] 8.07
